test system: H1299 p53 R273H; test: Cell Proliferation Assay (CellTiter-Glo, CTG), H1299 p53 R273H (NClH1299-inducible p53 R273H); type: cell-based; conditions: Homo sapiens, NCI-H1299, 120 h, CellTiter-Glo, H1299 p53 R273H, 5 days
pIC50: −log10 of the molar value.
Could you please report measured pIC50 for the items listed next?

Given the entry CNC(=O)c1ccc(N[C@@H](C)C#Cc2nc3c(N[C@@H]4CCN(C)C[C@@H]4F)cccn3c2SC(F)(F)F)c(OC)c1 , report its measured pIC50.
5.10 to 5.30

Any idea what pIC50 was measured for CN1CC[C@@H](Nc2cccn3c(CC(F)(F)F)c(C#C[C@H](O)c4ccccc4)nc23)[C@@H](F)C1 ?
> 5.30

Could you share which pIC50 value was measured for COc1cc(S(C)(=O)=O)ccc1NCC#Cc1nc2c(NC3CCN(CCS(C)(=O)=O)CC3)cccn2c1CC(F)(F)F ?
≤ 5.00

What measured pIC50 goes with CNC(=O)c1ccc(OC)c(NCC#Cc2nc3c(N[C@@H]4CCNC[C@@H]4F)cccn3c2SC(F)(F)F)n1 ?
5.10 to 5.30

Which pIC50 value belongs to CNC(=O)c1ccc(NCC#Cc2nc3c(N[C@@H]4CCN(C)C[C@@H]4F)cccn3c2CC(F)(F)F)c(C2CC2)c1 ?
≤ 5.00

Could you tell me which pIC50 is on file for CCS(=O)(=O)c1ccc(NCC#Cc2nc3c(N[C@@H]4CCNC[C@@H]4F)cccn3c2SC(F)(F)F)c(OC)c1 ?
5.10 to 5.30

What does the record list as pIC50 for CNC(=O)c1ccc(NCC#Cc2nc3c(NC4CCN(C)CC4)cc(NC(=O)OC(C)(C)C)cn3c2CC(F)(F)F)c(OC)c1 ?
5.10 to 5.30

Looking for the measured pIC50 of COC[C@@H](O)CN1CCC(Nc2cccn3c(CC(F)(F)F)c(C#CCNc4ccc(S(C)(=O)=O)cc4OC)nc23)CC1 , can you help?
≤ 5.00

Would you kindly share the measured pIC50 for COc1cc(C(N)=O)ccc1NCC#Cc1nc2c(N[C@@H]3CCN(C)C[C@@H]3F)cccn2c1SC(F)(F)F ?
5.00 to 5.10

So what's the measured pIC50 for this one? COc1cc(C(=O)N(C)C)ccc1NCC#Cc1nc2c(N[C@@H]3CCN(C)C[C@@H]3F)cccn2c1CC(F)(F)F
≤ 5.00

What measured pIC50 goes with CNC(=O)c1cnc(OC)c(NCC#Cc2nc3c(N[C@@H]4CCN(C)C[C@@H]4F)cccn3c2SC(F)(F)F)n1 ?
≤ 5.00

For the molecule shown here, COc1cc(C(=O)N2CCCC2)ccc1NCC#Cc1nc2c(N[C@@H]3CCN(C)C[C@@H]3F)cccn2c1CC(F)(F)F , give the reported pIC50.
≤ 5.00

# input molecule: CNC(=O)c1ccc(OC)c(NCC#Cc2nc3c(N[C@H]4C[C@@H]5CC[C@H]([C@H]4F)N5C)cccn3c2SC(F)(F)F)c1 ; wanted: its pIC50
≤ 5.00

Give its pIC50 value. Item: CNS(=O)(=O)c1ccc(NCC#Cc2nc3c(N[C@@H]4CCN(C)C[C@@H]4F)cccn3c2CC(F)(F)F)c(OC)c1
5.00 to 5.10

###

target: p53 Y220C (Homo sapiens, UniProt P04637, Y220C); experiment: Luciferase Reporter Assay (Luc), p53 response element, NClH1299 cells with inducible p53 Y220C; assay type: cell-based; details: luciferase reporter, NClH1299 inducible p53 Y220C, 6 hour; 10 uM tool compound as positive control
Structures can show the parent of a compound that is named as a salt.
Kindly state Emax for each of the entries shown.

Field request: Emax | item: COc1ccc(C(N)=O)nc1NCC#Cc1nc2c(N[C@@H]3CCN(C)C[C@@H]3F)cccn2c1SC(F)(F)F
80 to 90%

Consider the compound shown here: CNC(=O)c1ccc(NCC#Cc2nn3c(N[C@@H]4CCN(C)C[C@@H]4F)ccnc3c2SC(F)(F)F)c(OC)c1 What is its recorded Emax?
< 70%

// lookup Emax for CNC(=O)c1ccc(OC)c(NCC#Cc2cc3c(N[C@@H]4CCN(C)C[C@@H]4F)nccn3c2SC(F)(F)F)c1
> 90%

I have this compound here, CNC(=O)c1ccc(NCC#Cc2nc3c(N[C@@H]4CCc5ncnn5C4)cccn3c2SC(F)(F)F)c(OC)c1 (stereo in doubt) , and I need its recorded Emax.
> 90%

Look up Emax for this compound: COc1cc(S(C)(=O)=O)ccc1NCC#Cc1nc2c(NC3CCN(C)CC3)cc(O)cn2c1CC(F)(F)F [Example 27, TFA salt]
< 70%

Name the recorded Emax for COc1cc(S(C)(=O)=O)ccc1NCC#Cc1nc2c(N[C@@H]3CCN(C)C[C@@H]3F)cccn2c1SC(F)(F)F .
80 to 90%

Entry under review: CNC(=O)c1cc(NCC#Cc2cc3c(N[C@@H]4CCN(C)C[C@@H]4F)nccn3c2SC(F)(F)F)c2nccn2c1 . Reported Emax?
> 90%

Fill blank: measured Emax of the compound CNC(=O)c1ccc(OC)c(NCC#Cc2nc3c(N[C@@H]4CNC[C@@H]4F)cccn3c2SC(F)(F)F)n1 is ____.
70 to 80%

Dear colleague, I am looking for the recorded Emax of the following compound: CNC(=O)c1ccc(NCC#Cc2nc3c(N[C@H]4CN(C)CC[C@@H]4F)cccn3c2SC(F)(F)F)c(OC)c1
> 90%

Could you share which Emax value was measured for CCOc1cc(C(=O)NC)ccc1NCC#Cc1nc2c(N[C@@H]3CCN(C)C[C@@H]3F)cccn2c1SC(F)(F)F ?
80 to 90%

Which Emax reading was recorded for the compound COc1ccc(C(=O)N2CCC2)cc1NCC#Cc1nc2c(N[C@@H]3CCN(C)C[C@@H]3F)cccn2c1SC(F)(F)F ?
80 to 90%

What does the record list as Emax for CNC(=O)c1ccc(NCC#Cc2nc3c(N[C@@H]4CNC[C@@H]4F)cccn3c2SC(F)(F)F)c(OC)c1 ?
70 to 80%

Look at this compound and give its reported Emax. CNC(=O)c1ccc(OC)c(NCC#Cc2nc3c(N[C@@H]4C[C@H]5CC[C@H](N5)[C@@H]4F)cccn3c2SC(F)(F)F)c1
70 to 80%

Could you tell me which Emax is on file for CC#Cc1nc2c(N[C@@H]3CCN(C)C[C@@H]3F)cccn2c1CC(F)(F)F ?
< 70%

Name the reported Emax value associated with the compound CNC(=O)c1ccc(NCC#Cc2nc3c(N[C@H]4CCn5nccc5C4)cccn3c2SC(F)(F)F)c(OC)c1
< 70%

Item under review: COc1cc2c(cc1NCC#Cc1nc3c(N[C@@H]4CCN(C)C[C@@H]4F)cccn3c1SC(F)(F)F)C(=O)NC2 . Reported Emax?
> 90%

What value of measured Emax is listed for CNC(=O)c1ccc(NCC#Cc2nc3c(N[C@@H]4C[C@H]5COC[C@@H]([C@@H]4F)N5C)cccn3c2SC(F)(F)F)c(OC)c1 ?
< 70%

Which Emax value belongs to CNC(=O)c1ccc(C)c(NCC#Cc2nc3c(N[C@@H]4CCN(C)C[C@@H]4F)cccn3c2SC(F)(F)F)c1 ?
> 90%

Recorded Emax of CNC(=O)c1ccc(NCC#Cc2nc3c(N[C@@H]4CCN(C)C(=O)C4)cccn3c2SC(F)(F)F)c(OC)c1 , please.
70 to 80%

Look up Emax: CNC(=O)c1ccc(NCC#Cc2nc3c(N[C@@H]4C[C@H]5CC[C@@H]([C@@H]4F)N5C)cccn3c2SC(F)(F)F)c(OC)c1
80 to 90%

// query Emax value for entry CNC(=O)c1c[nH]nc1NCC#Cc1nc2c(N[C@@H]3CCN(C)C[C@@H]3F)cccn2c1SC(F)(F)F
80 to 90%

Which Emax is reported for this compound? COc1cc(S(C)(=O)=O)ccc1NCC#Cc1nc2c(NC3CCN(C(C)C)CC3)cccn2c1CC(F)(F)F
70 to 80%

Given the compound CNC(=O)c1ccc(OC)c(NCC#Cc2cc3c(N[C@@H]4CN(C)C[C@@H]4F)nccn3c2SC(F)(F)F)c1 , what is its reported Emax?
> 90%

Sample CNC(=O)c1ccc(NCC#Cc2nc3c(N[C@@H]4CCN(C)C[C@@H]4F)cccn3c2SC(F)(F)F)c(OC)c1 [Example 28, formic acid salt] — what was its Emax?
80 to 90%

What value of Emax has been recorded for this entry: CNC(=O)c1ccc(NCC#Cc2nc3c(N[C@@H]4CCN(C)C[C@@H]4F)cccn3c2CC(F)(F)F)c(C2CC2)c1
70 to 80%

Fill blank: measured Emax of the compound CCS(=O)(=O)c1ccc(NCC#Cc2nc3c(N[C@@H]4CCN(C)C[C@@H]4F)cccn3c2CC(F)(F)F)c(OC)c1 is ____.
70 to 80%

// Emax lookup, key: CNC(=O)c1ccc(NCC#Cc2nc3c(N[C@@H]4CCN(C)C[C@@H]4F)cccn3c2CC(F)(F)F)c(OC)n1
80 to 90%
